# Tested on: U2OS
# protocol-summary: Multiplex assay against U2OS
# Assay type: toxicity, cell-based
# test-conditions: human, 12 h, 1 µM, compound concentration 1 uM, replicate 2
Label rule, in plain words: Population Pyknosed Nuclei (%) of 5% and up is TRUE, under 5% is FALSE.

sample_smiles=Cc1cc(C)c(-n2ccn3nc(-c4cccnc4)cc23)cc1NC(=O)c1cc(C#N)cc(S(F)(F)(F)(F)F)c1 assayed_target=U2OS discrete_label=TRUE
sample_smiles=CCOC(=O)Nc1cc(-c2ccc(C)c(NS(C)(=O)=O)c2)nn2c(C)nnc12 assayed_target=U2OS discrete_label=FALSE
sample_smiles=CC(C)c1noc(N2CCC(COc3ccc(-c4ccc(S(C)(=O)=O)cc4)nc3)CC2)n1 assayed_target=U2OS discrete_label=FALSE

Switching to the query record.
Exercise: Quick check: does O=c1[nH]c2ccccc2n1C1CCN(Cc2ccc(-c3[nH]c4cc5ncnc5cc4nc3-c3ccccc3)cc2)CC1 have Population Pyknosed Nuclei (%) greater than or equal to 5%?
Solution: TRUE
